- study-system: EGFR Exon19Del/T790M (Homo sapiens, UniProt P00533, DEL746-750/T790M)
- Construct: purchased Carna Bio
- Sequence (P00533 with tags, fused parts or gaps DEL746-750/T790M limits assumed): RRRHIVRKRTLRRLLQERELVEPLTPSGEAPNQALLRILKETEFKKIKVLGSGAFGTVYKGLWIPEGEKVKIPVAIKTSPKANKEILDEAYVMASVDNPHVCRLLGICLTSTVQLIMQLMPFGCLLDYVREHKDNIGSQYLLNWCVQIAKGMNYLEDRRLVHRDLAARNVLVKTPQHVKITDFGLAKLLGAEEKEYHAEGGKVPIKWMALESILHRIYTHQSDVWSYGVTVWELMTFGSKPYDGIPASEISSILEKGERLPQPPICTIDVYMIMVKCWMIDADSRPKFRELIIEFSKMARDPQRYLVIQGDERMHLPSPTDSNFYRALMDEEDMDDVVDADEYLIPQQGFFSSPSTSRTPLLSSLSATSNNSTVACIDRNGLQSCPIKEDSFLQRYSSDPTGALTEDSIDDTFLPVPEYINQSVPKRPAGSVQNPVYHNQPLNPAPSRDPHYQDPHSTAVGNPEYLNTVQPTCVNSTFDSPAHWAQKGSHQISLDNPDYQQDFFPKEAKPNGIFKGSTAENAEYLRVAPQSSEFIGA
- assay-notes: Inhibition of EGFR Exon19Del/T790M biochemical enzymatic activity (HTRF)
- applied-conditions: EGFR Del19-T790M, 1 mM ATP, 1 h, room temperature, read-out: IC50 (nM) @Del19-T790M
reported-metric: IC50

[[record]]
molecule = "C[C@@H]1CCCOc2c(cnn2C)-c2cc(cn(C)c2=O)C(=O)Nc2nc3ccc(N4CCC(N(C)C)C(F)(F)C4)cc3n2C1 (stereo partly drawn)"
reported_metric = "IC50"
value = "12 nM"

[[record]]
molecule = "CN1CCN(c2ccc3nc4n(c3c2)CC2(CCCOc3c(cnn3C)-c3cc(cn(C)c3=O)C(=O)N4)CC2)CC1"
reported_metric = "IC50"
value = "41 nM"

[[record]]
molecule = "C[C@@H]1CCCOc2c(cnn2CC(F)(F)F)-c2cc(cn(C)c2=O)C(=O)Nc2nc3ccc(N4CCN(C)CC4)cc3n2C1"
reported_metric = "IC50"
value = "41 nM"

[[record]]
molecule = "CN1CCCC12CN(c1ccc3nc4n(c3c1)C13CCC(CN(CCOc5c(cnn5C)-c5cc(cn(C)c5=O)C(=O)N4)C1)C3)C2 (single isomer, unassigned) [Example A76A]"
reported_metric = "IC50"
value = "> 5000 nM"

[[record]]
molecule = "CN1CC2(C1)CN(c1ccc3nc4n(c3c1)C13CCC(CN(CCOc5c(cnn5C)-c5cc(cn(C)c5=O)C(=O)N4)C1)C3)C2 (single isomer, unassigned) [Example A92B]"
reported_metric = "IC50"
value = "2.6 nM"

[[record]]
molecule = "CN1CCN(c2ccc3nc4n(c3c2)CCN(CC(F)(F)F)CCOc2c(cnn2C)-c2cc(cn(C)c2=O)C(=O)N4)CC1"
reported_metric = "IC50"
value = "9.3 nM"

